tested on: SU-DHL-6; assay: Antiproliferative activity against human SUDHL6 cells measured after 72 hrs by alamar blue assay; assay type: functional, cell-based; settings: SU-DHL-6, 72 h
pIC50: −log10 of the molar value.
Recorded Endpoint: pIC50

Previously resolved entries follow.
CC(COC(F)F)N1CCN(CC#Cc2cccc3nc([C@@H]4CCCN4c4ncnc(N)c4C#N)n(-c4ccccc4)c(=O)c23)CC1 (stereo partly specified): 5.70
N#Cc1c(N)ncnc1N1CCC[C@H]1c1nc2cccc(C#CCCCC(=O)N3CCOCC3)c2c(=O)n1-c1ccccc1: 7.56

(I) N#Cc1c(N)ncnc1N1CCC[C@H]1c1nc2cccc(C#Cc3cccnc3)c2c(=O)n1-c1ccccc1
(II) Cc1nc(N)nc(N2CC[C@H]2c2nc3cccc(C#CCCCC(=O)N4CCCC4)c3c(=O)n2-c2ccccc2)c1C#N
Could you point out whether the larger pIC50 belongs to I or to II ? Give the label under which the chosen entry appears.
II
(II: 6.06, I: 5.76)

(1) N#Cc1c(N)ncnc1N1CCC[C@H]1c1nc2cccc(C#Cc3ccccn3)c2c(=O)n1-c1ccccc1
(2) CC(C)(CO)N1CCN(CC#Cc2cccc3nc([C@@H]4CCCN4c4ncnc(N)c4C#N)n(-c4ccccc4)c(=O)c23)CC1
Select the item whose pIC50 value is smaller, choosing between 1 and 2 . # respond with the chosen item's label
1

(A) CC[C@H](Nc1ncnc(N)c1C#N)c1nc2cccc(C#CCCCC(=O)N3CCCC3)c2c(=O)n1-c1ccccc1
(B) Cc1nc(N)nc(N2CC[C@H]2c2nc3cccc(C#CCCCC(=O)N4CCOCC4)c3c(=O)n2-c2ccccc2)c1C#N
(C) C=CC(O)C(C)(C)N1CCN(CC#Cc2cccc3nc([C@@H]4CCCN4c4ncnc(N)c4C#N)n(-c4ccccc4)c(=O)c23)CC1 (stereo partly specified)
(D) N#Cc1c(N)ncnc1N1CCC[C@H]1c1nc2cccc(C#Cc3cccc(F)c3)c2c(=O)n1-c1ccccc1
Rank entries according to their pIC50, from the largest number down. Order the labels as requested and give them as your answer.
C, B, A, D

(1) N#Cc1c(N)ncnc1N1CCC[C@H]1c1nc2cccc(C#Cc3cccs3)c2c(=O)n1-c1ccccc1
(2) N#Cc1c(N)ncnc1N1CCC[C@H]1c1nc2cccc(C#CCN3CCN(CC4CC4)CC3)c2c(=O)n1-c1ccccc1
(3) N#Cc1c(N)ncnc1N1CCC[C@H]1c1nc2cccc(C#CCCCC(=O)N3CCCC3)c2c(=O)n1-c1ccccc1
Arrange these 3 compounds in increasing order of pIC50. Could you list the labels in the order requested?
1, 2, 3
(1: 5.77, 2: 6.15, 3: 7.00)

(1) CC[C@H](Nc1ncnc2[nH]cnc12)c1nc2cccc(C#CCCCC(=O)N3CCOCC3)c2c(=O)n1-c1ccccc1
(2) Cc1nc(N)nc(N2CCC[C@H]2c2nc3cccc(C#CCCCC(=O)N4CCOCC4)c3c(=O)n2-c2ccccc2)c1C#N
From the items above, decide which of 1 and 2 has the lower pIC50 reading. Could you answer with the label of the item you picked?
1
